Listing: glycan array binding signal (z-score) of selected binders
molecular target: Neu5Ac(a2-3)Gal(b1-3)GlcNAc6S; assay: glycan array binding signal (z-score within array); higher = stronger binding; settings: glycan notation: IUPAC condensed, linker removed
The sample as a whole holds a higher share of the strongest signals than the screen did.

>  <Binder>
GNAT (Pseudomonas aeruginosa), Q9HV14 (protein) MQLSHRPAETGDLETVAGFPQDRDELFYCYPKAIWPFSVAQLAAAIAERRGSTVAVHDGQVLGFANFYQWQHGDFCALGNMMVAPAARGLGVARYLIGVMENLAREQYKARLMKISCFNANAAGLLLYTQLGYQPRAIAERHDPDGRRVALIQMDKPLEP

>  <glycan array binding signal (z-score)>
-0.165

$$$$
>  <Binder>
Mg3lysM (Mycosphaerella graminicola) (protein) APQNPPTSCSAAPQPTGTGSPGTVCGSTTFTNYTVKAGDTLGAIAKQYNSGVCDIAKVNGIDNPDYIKPDQVLSIPANCVTPDNTSCVKPVPVITNTCVLGVGSTYTVKSGDSFSAIATSFNITLASLEARNPQIPNYDLIFPGQVINTPLCPNSVCDSIGTYVIESGDIFYNLAQSNNVTVGQLESLNVNVNVTDIHPGDIIILPHNCHNITASA

>  <glycan array binding signal (z-score)>
-0.154

$$$$
